Hello, the source for this data is patent US20190309034A1, in case you need it.

Biological target: Recombinant soluble trimeric human BAFF (furin-cleaved human BAFF 134-285) (human, UniProt Q9Y275 134-285)
Experiment: cell-based or functional assay
endpoint label: Soluble trimeric huBAFF (52 pM) Neutralization IC90
Express the reported value numerically, then name its unit.

INSERT INTO measurements (binder, observed_value) VALUES
  ('Reference 2 (antibody, human IgG1, lambda, V domains shown, Comparator anti-BAFF antibody) VH: QVQLQQSGAEVKKPGSSVRVSCKASGGTFNNNAINWVRQAPGQGLEWMGGIIPMFGTAKYSQNFQGRVAITADESTGTASMELSSLRSEDTAVYYCARSRDLLLFPHHALSPWGRGTMVTVSS VL: SSELTQDPAVSVALGQTVRVTCQGDSLRSYYASWYQQKPGQAPVLVIYGKNNRPSGIPDRFSGSSSGNTASLTITGAQAEDEADYYCSSRDSSGNHWVFGGGTELTVLG', '1000 pM'),
  ('235F5B9 (antibody, V domains shown, Mouse lead antibody (hybridoma)) VH: QVQLQQPGAELVKPGASVKLSCKASGYSFSTFFIHWIQQRPGRGLEWIGRIDPNSGATKYNEKFESKATLTVDKPSSTAYMHLSSLTSEDSAVYYCARGEDLLIRTDALDYWGQGTSVTVSS VL: DIVMTQSQKIMSTTVGDRVSITCKASQNAGIDVAWFQQKPRQSPKLLIFSKSNRYTGVPDRFAGSGSGTDFTLTIYNVQSEDLADYFCLQYRSYPRTFGGGTKLEIK', '107 pM');

Prompt line: Which Soluble trimeric huBAFF (52 pM) Neutralization IC90 value belongs to 227D5A7 (antibody, V domains shown, Mouse lead antibody (hybridoma)) VH: QVQLQQPGAELVKPGASVKLSCKASGYTFSIFCVHWVQQRPGRGLEWIGRIDPSSGGTKYNEKFESKATLTVDKSSSTAYMQLSSLTPEDSAVYYCARGEDLLVRTDALDYWGQGSSVTVSS VL: DIVMTQSQKFMSTTVGDRVSITCKASQNAGAAVAWFQQKPGQSPKLLIYSASNRYTGVPDRFTGSGSGTDFTLTISNVQSEDLADYICQQYRSFPRTFGGGTKLEIK ?
Response line: 56.8 pM
